experiment: Pharmacokinetics in mice; type: in vivo; details: male, BALB/c (nude), mouse, plasma, po, 10 mg/kg
reportedProperty: Cmax (ng/mL)
Supply the numeric figure in ng/mL, leaving out any unit text.

Which Cmax is reported for this compound? FC(F)(F)Oc1cccc(-c2cnc3ccc(-c4ccncc4)nn23)c1
632

----------
experiment: Pharmacokinetics in mice; assay type: in vivo; details: male, BALB/c (nude), mouse, plasma, iv, 5 mg/kg
reportedProperty: Cmax (µM)
Supply the numeric figure in µM, leaving out any unit text.

Which Cmax is reported for this compound? FC(F)(F)Oc1cccc(-c2cnc3ccc(-c4ccncc4)nn23)c1
4.3

----------
assay: Pharmacokinetics in mice; assay type: in vivo; settings: male, BALB/c (nude), mouse, plasma, iv, 5 mg/kg, half-life (T1/2)
reportedProperty: half-life

Which half-life is reported for this molecule? FC(F)(F)Oc1cccc(-c2cnc3ccc(-c4ccncc4)nn23)c1 [C28]
~10 min

----------
assay: Pharmacokinetics in mice; assay type: in vivo; conditions: male, BALB/c (nude), mouse, plasma, ip, 10 mg/kg, T1/2, plasma
reportedProperty: half-life

Which half-life is reported for this compound? FC(F)(F)Oc1cccc(-c2cnc3ccc(-c4ccncc4)nn23)c1 [C28]
~59 min
